- subject of test: T1, TNFR1 (Homo sapiens, UniProt P19438)
- T1 chain: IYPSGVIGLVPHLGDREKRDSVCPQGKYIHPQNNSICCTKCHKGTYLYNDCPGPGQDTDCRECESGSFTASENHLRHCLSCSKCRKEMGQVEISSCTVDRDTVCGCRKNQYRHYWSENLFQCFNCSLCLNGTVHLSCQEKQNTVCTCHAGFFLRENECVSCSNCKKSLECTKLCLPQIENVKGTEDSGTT
- test: yeast display SC50
Below, each entry is listed with its recorded apparent Kd (screen).

{"binder": "A20E (designed binder) SMEEEVEKAAKEYEKKKKEEIEKHLEKLKAKDKEAAERFLKELEEAAKEYAKDEAKTMSEEEAKRRAKKYKEKVLLSELSEEEQKEIKEAEEKLVRTILKYVEEAAK", "unit abbrev": "nM", "apparent Kd (screen)": 1.16}
{"binder": "R65D (designed binder) SMEEEVEKAAKEYEKKKKEAIEKHLEKLKAKDKEAAERFLKELEEAAKEYAKDEAKTMSEEEAKDRAKKYKEKVLLSELSEEEQKEIKEAEEKLVRTILKYVEEAAK", "unit abbrev": "nM", "apparent Kd (screen)": 0.405}
{"binder": "M2H (designed binder) SHEEEVEKAAKEYEKKKKEAIEKHLEKLKAKDKEAAERFLKELEEAAKEYAKDEAKTMSEEEAKRRAKKYKEKVLLSELSEEEQKEIKEAEEKLVRTILKYVEEAAK", "unit abbrev": "nM", "apparent Kd (screen)": 0.49}
{"binder": "A35R (designed binder) SMEEEVEKAAKEYEKKKKEAIEKHLEKLKAKDKERAERFLKELEEAAKEYAKDEAKTMSEEEAKRRAKKYKEKVLLSELSEEEQKEIKEAEEKLVRTILKYVEEAAK", "unit abbrev": "nM", "apparent Kd (screen)": 0.539}

Taken from paper PMC12416549.
